Taken from patent US9198913B2.

Experiment Notes: Stability to mouse liver microsomes;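 also: analyte quantified by LC-MS/MS as ratio to internal standard peak area, mean of duplicates, 60 min value expressed relative to the 0 min level (100%)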
Format: in vitro ADME
Experimental Conditions: 1 μM, 37° C., 60 min, CD-1 mouse liver microsomes
Assignment: determine reported Microsomes (% remaining, 1 h) Mouse for the given compounds.
Just the number please, in %, no unit attached.

If you can, please state the reported Microsomes (% remaining, 1 h) Mouse value of `O=[N+]([O-])c1cn2c(n1)OC[C@@H](OC/C=C/c1ccc(-c3ccc(OC(F)(F)F)cc3)cc1)C2` . 95

If you can, please state the reported Microsomes (% remaining, 1 h) Mouse value of `O=[N+]([O-])c1cn2c(n1)OC[C@@H](OCc1ccc(/C=C/c3ccc(OC(F)(F)F)cc3)cc1)C2` . 98

If you can, please state the reported Microsomes (% remaining, 1 h) Mouse value of `O=[N+]([O-])c1cn2c(n1)OC[C@@H](OCc1ccc(-c3ccc(OC(F)(F)F)c(F)c3)cn1)C2` . 86

If you can, please state the reported Microsomes (% remaining, 1 h) Mouse value of `O=[N+]([O-])c1cn2c(n1)OC[C@@H](OCc1ccc(C#Cc3ccc(C(F)(F)F)nc3)cn1)C2` . 91

If you can, please state the reported Microsomes (% remaining, 1 h) Mouse value of `O=[N+]([O-])c1cn2c(n1)OC[C@@H](OCc1ccc(-c3ccc(F)cc3)nc1)C2` . 80

If you can, please state the reported Microsomes (% remaining, 1 h) Mouse value of `O=[N+]([O-])c1cn2c(n1)OC[C@@H](OCc1ccc(-c3ccc(C(F)(F)F)cn3)cc1)C2` . 90

If you can, please state the reported Microsomes (% remaining, 1 h) Mouse value of `O=[N+]([O-])c1cn2c(n1)OC[C@@H](OCc1ccc(-c3ccc(C(F)(F)F)nc3)cc1F)C2` . 78

If you can, please state the reported Microsomes (% remaining, 1 h) Mouse value of `O=[N+]([O-])c1cn2c(n1)OC[C@@H](OCc1ccc(-c3ccc(OC(F)(F)F)cc3)nn1)C2` . 92

If you can, please state the reported Microsomes (% remaining, 1 h) Mouse value of `O=[N+]([O-])c1cn2c(n1)OC[C@@H](OCc1ccc(-c3ccc(OC(F)(F)F)c(Cl)c3)nc1)C2` . 77

If you can, please state the reported Microsomes (% remaining, 1 h) Mouse value of `O=[N+]([O-])c1cn2c(n1)OC[C@@H](OCc1cnc(-c3ccc(OC(F)(F)F)cc3)nc1)C2` . 87

If you can, please state the reported Microsomes (% remaining, 1 h) Mouse value of `O=[N+]([O-])c1cn2c(n1)OC[C@@H](OCc1ncc(-c3ccc(OC(F)(F)F)cc3)cn1)C2` . 87

If you can, please state the reported Microsomes (% remaining, 1 h) Mouse value of `O=[N+]([O-])c1cn2c(n1)OC[C@@H](OCc1cnn(-c3ccc(OC(F)(F)F)cc3)c1)C2` . 64

If you can, please state the reported Microsomes (% remaining, 1 h) Mouse value of `O=[N+]([O-])c1cn2c(n1)OC[C@@H](OCc1ccn(-c3ccc(OC(F)(F)F)cc3)n1)C2` . 67

If you can, please state the reported Microsomes (% remaining, 1 h) Mouse value of `O=[N+]([O-])c1cn2c(n1)OC[C@@H](OCc1ccc(-c3ccc(OC(F)(F)F)cc3)cc1F)C2` . 85

If you can, please state the reported Microsomes (% remaining, 1 h) Mouse value of `O=C(O[C@@H]1COc2nc([N+](=O)[O-])cn2C1)N1CCN(c2ccc(OC(F)(F)F)cc2)CC1` . 85

If you can, please state the reported Microsomes (% remaining, 1 h) Mouse value of `O=[N+]([O-])c1cn2c(n1)OC[C@@H](OCc1ccc(-c3ccc(C(F)(F)F)cn3)cc1F)C2` . 77

If you can, please state the reported Microsomes (% remaining, 1 h) Mouse value of `O=[N+]([O-])c1cn2c(n1)OC[C@@H](OCc1ccc(-c3ccc(OC(F)(F)F)cc3)nc1)C2` . 87

If you can, please state the reported Microsomes (% remaining, 1 h) Mouse value of `O=[N+]([O-])c1cn2c(n1)OC[C@@H](OCc1ccc(-c3ccc(F)cn3)cc1)C2` . 61

If you can, please state the reported Microsomes (% remaining, 1 h) Mouse value of `O=[N+]([O-])c1cn2c(n1)OC[C@@H](OCc1ccc(-c3ccc(OC(F)(F)F)cc3Cl)cc1)C2` . 86

If you can, please state the reported Microsomes (% remaining, 1 h) Mouse value of `O=[N+]([O-])c1cn2c(n1)OC[C@@H](OCc1ccc(-c3ccc(OC(F)(F)F)c(F)c3)cc1)C2` . 86

If you can, please state the reported Microsomes (% remaining, 1 h) Mouse value of `O=[N+]([O-])c1cn2c(n1)OC[C@@H](OCc1ccc(Cc3ccc(OC(F)(F)F)cc3)cc1)C2` . 70

If you can, please state the reported Microsomes (% remaining, 1 h) Mouse value of `O=[N+]([O-])c1cn2c(n1)OC[C@@H](OCC#Cc1ccc(-c3ccc(OC(F)(F)F)cc3)cc1)C2` . 85

If you can, please state the reported Microsomes (% remaining, 1 h) Mouse value of `O=[N+]([O-])c1cn2c(n1)OC[C@@H](OCc1ccc(-c3ccc(OC(F)(F)F)c(F)c3)nc1)C2` . 90

If you can, please state the reported Microsomes (% remaining, 1 h) Mouse value of `Cn1nc(-c2ccc(OC(F)(F)F)cc2)cc1CO[C@@H]1COc2nc([N+](=O)[O-])cn2C1` . 81
